Target: CB2 receptors (Mus musculus)
Construct: the complete brain (excluding the cerebellum) and the spleen were quickly dissected and kept in ice; from tissue; host or cells: mouse spleen, membrane preparation
Sequence (P47936 whole entry): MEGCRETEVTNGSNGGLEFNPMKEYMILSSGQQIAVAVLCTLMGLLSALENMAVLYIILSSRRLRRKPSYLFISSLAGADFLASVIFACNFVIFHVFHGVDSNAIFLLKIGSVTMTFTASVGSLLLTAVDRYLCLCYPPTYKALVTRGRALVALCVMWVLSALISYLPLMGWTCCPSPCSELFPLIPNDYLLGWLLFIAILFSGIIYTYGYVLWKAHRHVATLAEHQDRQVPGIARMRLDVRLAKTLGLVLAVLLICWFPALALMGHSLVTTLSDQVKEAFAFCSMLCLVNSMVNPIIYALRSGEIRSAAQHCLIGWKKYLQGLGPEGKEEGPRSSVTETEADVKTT
Test: radioreceptor binding, displacement of [3H]-CP-55,940, CB2 (spleen)
Please go through the items and note down their Ki.
Number first, unit second: that is the form wanted.

Problem: May I ask what Ki has been recorded for Cc1ccc2c(c1)oc1c(C(=O)NC3C4CC5CC(C4)CC3C5)nn(-c3ccc(Cl)cc3Cl)c12 (stereo not shown) ?
Result: 17.5 nM

Problem: Note, next up: Cc1ccc2c(c1)oc1c(C(=O)NN3CCOCC3)nn(-c3ccc(Cl)cc3Cl)c12
Result: 37.7 nM

Problem: Note, next up: Cc1ccc2c(c1)oc1c(C(=O)NC3CC4CCC3(C)C4(C)C)nn(-c3ccc(Cl)cc3Cl)c12 (stereo not shown)
Result: 3.5 nM

Problem: Note, next up: Cc1ccc2c(c1)oc1c(C(=O)NN3CCCCC3)nn(-c3ccc(Cl)cc3Cl)c12
Result: 12.9 nM

Values compiled from patent US20100215741A1.
